The following molecules are shown together with reported activity at 10 µM values.
Test system: cytokine secretion from LPS-stimulated human monocytes
experimental details: Human monocyte cytokine secretion assay (LPS-stimulated)
Assay type: cell-based
condition notes: 10 μM of test compound, 1 ng/mL LPS, 4 hours, read-out: TNF-α % (Percent inhibition values for inhibition of cytokine secretion)

# smiles code, activity at 10 µM, %
measured = [
    ("C=Cc1ccc(CN2CCC[C@H](Nc3ccc4[nH]ncc4c3)C2)cc1", 50.7),
    ("c1ccc(CN2CCC[C@@H](Nc3ccc4[nH]ncc4c3)C2)cc1", 119),
    ("O=C(COc1cccc(CN2CCC[C@@H](Nc3ccc4[nH]ncc4c3)C2)c1)N1CCOCC1", 97.3),
    ("Cc1ccc(CN2CC[C@@H](Nc3cccc4cnccc34)C2)cc1OCCO", 66.2),
    ("COc1ccc(CN2CCC[C@@H](Nc3ccc4[nH]ncc4c3)C2)cc1", 66.6),
    ("Fc1ccc(CN2CCC[C@H](Nc3ccc4[nH]ncc4c3)C2)cc1F", 83.8),
    ("c1cc2c(cc1CN1CCC[C@@H](Nc3ccc4[nH]ncc4c3)C1)CCO2", 79),
    ("C=Cc1ccc(CN2CCC[C@@H](Nc3ccc4[nH]ncc4c3)C2)cc1", 92),
    ("Cc1ccc(CN2CCC[C@H](Nc3ccc4[nH]ncc4c3)C2)cc1", 88.1),
    ("Clc1cccc(CN2CCC[C@H](Nc3ccc4[nH]ncc4c3)C2)c1", 67.8),
    ("Fc1ccc(CN2CCC[C@@H](Nc3ccc4[nH]ncc4c3)C2)cc1", 97.7),
    ("c1ccc(CN2CCC[C@H](Nc3ccc4[nH]ncc4c3)C2)cc1", 79.3),
]
